- Test system: HEK293T-Rex XBP1-RLuc
- Assay: EC50 for XBP1-RLuc reporter activation
- Condition Notes: 18 h

Molecule Smiles | Measurement Target | EC50 for XBP1-RLuc reporter activation
COc1ccc(/C=C(\C#N)c2nc(-c3ccco3)cs2)cc1O | HEK293T-Rex XBP1-RLuc | > 16.7 µM
CNC(=O)c1ccccc1Nc1cc(NC(=O)Cc2ccc(F)c(F)c2)ncc1C(F)(F)F | HEK293T-Rex XBP1-RLuc | > 16.9 µM
Oc1ccc(-c2csc3nc(-c4ccccc4)nn23)c(O)c1 | HEK293T-Rex XBP1-RLuc | > 16.9 µM
O=C(N/N=C/c1ccc2c(c1)OCO2)c1cccc(F)c1 | HEK293T-Rex XBP1-RLuc | > 16.9 µM
NC(=O)c1c(NC(=O)COc2ccccc2)sc2c1CCC2 | HEK293T-Rex XBP1-RLuc | > 13.2 µM
N/C(=N\N=C\c1ccc(O)c(O)c1)c1nonc1N | HEK293T-Rex XBP1-RLuc | > 16.9 µM

###

- Tested on: HEK293T-Rex ERSE-FLuc
- Assay: maximal ERSE-FLuc activation from dose-response fit, relative to thapsigargin (% of thapsigargin); higher = stronger activation
- Condition Notes: 18 h

Molecule Smiles | maximal ERSE-FLuc activation
Cc1cnc(NC(=O)c2sc3nc4c(C)cccc4cc3c2N)s1 | 58.9
COc1ccccc1/C=N/Nc1nc(-c2ccccc2)cc(=O)[nH]1 | 28.3
CCCNC(=O)c1cc(-c2ccc(F)cc2)on1 | 65.8
O=C1N/C(=C/c2ccc(O)cc2)C(=O)N1Cc1ccc(Br)cc1 | 47.9
O=C(NC(c1ccccc1)c1ccccc1)c1csc(-c2cnccn2)n1 | 34.2
NC(=O)c1c(NC(=O)c2cccc3ccccc23)sc2c1CCC2 | 21.9
CCc1nc2sc(C(=O)c3ccccc3)c(N)c2cc1C | 25.4
Cc1ccc(O)c(NC(=O)c2cc(-c3ccc(F)cc3)on2)c1 | 31
NN1C(=O)/C(=C/c2ccc(O)c(O)c2)SC1=S | 53.7
COC(=O)c1c(NC(=O)CCl)sc(C(=O)Nc2cccc([N+](=O)[O-])c2)c1C | 32.9
COc1ccc(-c2cc(C(=O)Nc3cc(C)ccc3O)on2)cc1OC | 29.1

###

- Tested on: HEK293T-Rex XBP1-RLuc
- Assay: EC50 for XBP1-RLuc reporter activation
- Condition Notes: 18 h
Measurement Type: EC50 for XBP1-RLuc reporter activation

Molecule | Test Value
COC(=O)c1c(NC(=O)CCl)sc(C(=O)Nc2cccc([N+](=O)[O-])c2)c1C | > 16.9 µM
CN1C(=O)/C(=C\c2ccc(O)c(O)c2)SC1=S | > 16.9 µM
COc1ccc(/C=C/c2nc3cc([N+](=O)[O-])ccc3s2)cc1O | > 18.5 µM
O=C(N/N=C/c1ccc(O)c(O)c1)c1ccc(Br)cc1 | 16.8 µM
COc1ccc(-c2csc(N(CC3CCCO3)C(=O)CCl)n2)cc1 (stereo not drawn) | > 16.9 µM
Cc1ccc(O)c(-c2cc(C(F)(F)C(F)F)no2)c1 | > 16.7 µM
CCn1c(/C(C#N)=C/c2ccc(OC)cc2)nc2ccccc21 | > 19.4 µM
CCOc1ccc2nc(NC(=O)c3ccn(C)n3)sc2c1 | > 14.4 µM
COc1cccc(-c2cc(C(=O)Nc3cc(C)ccc3O)no2)c1 | > 16.9 µM
Cc1cc(C)c(OCC(=O)N/N=C/c2ccc(O)c(O)c2)c(Br)c1 | > 16.9 µM
CCc1ccc(NC(=O)/C=C/c2ccco2)cc1 | > 16.8 µM
O=C(N/N=C/c1cccc(O)c1O)c1ccccn1 | > 18.4 µM
COc1cccc(C2=NOC(C(=O)Nc3cc(C)ccc3O)C2)c1 (stereo not drawn) | > 16.9 µM
Nc1ccc2sc(-c3cc(Cl)c(N)c(Cl)c3)nc2c1 | > 16.9 µM
O=C(CC(=O)Nc1ccc2nc3n(c(=O)c2c1)CCCCC3)NCc1ccco1 | > 16.9 µM
O=C(NC(c1ccccc1)c1ccccc1)c1csc(-c2cnccn2)n1 | > 16.9 µM
O=C(Nc1ccccc1O)c1ccc(C(=O)c2ccccc2)cc1 | > 16.8 µM
O=C(NCCCn1ccnc1)c1cc(-c2cccs2)on1 | > 16.9 µM
N#CC1=C(N)Oc2c(ccc3ccccc23)C1c1ccccc1 (stereo not drawn) | > 16.9 µM
CS(=O)(=O)c1ncc(Cl)c(C(=O)C(C#N)c2nc3ccccc3s2)n1 (stereo not drawn) | 3.99 µM
Cc1ccc(O)c(-c2cc(-c3ccc(F)cc3)n[nH]2)c1 | > 19 µM
Cc1cc2nc(-c3ccc(SCC#N)nc3)[nH]c2cc1C | > 16.9 µM
Nc1ccccc1NC(=O)c1ccc(C(F)(F)F)cc1 | > 19.9 µM
Cc1nc(-c2coc3c(O)c(O)ccc3c2=O)cs1 | > 16.9 µM
O=C(CCCN1CCC2(CC1)C(=O)N(Cc1cccc(F)c1)CN2c1ccccc1)c1ccc(F)cc1 | 4.02 µM
Nc1ccc2nc(/C=C/c3ccccc3)[nH]c2c1 | > 15.3 µM
N#Cc1c(NC(=O)c2ccc(Br)cc2)sc2c1CCCC2 | > 12.7 µM
O=C1N/C(=C/c2ccc(O)cc2)C(=O)N1c1ccccc1 | 4.36 µM
NC(=O)c1c(NC(=O)/C=C/c2ccccc2)sc2c1CCCCC2 | > 16.9 µM
Cc1ccc(O)c(NC(=O)c2cc(-c3ccc(F)cc3)on2)c1 | > 16.9 µM
Cc1ccc(O)c(NC(=O)c2cc(-c3cccnc3)on2)c1 | > 16.9 µM
COc1cccc(/C=N/NC(=O)c2n[nH]c3c2CCCC3)c1 | > 16.9 µM
Cc1ccc(O)c(NC(=O)c2cc(-c3cccs3)on2)c1 | > 16.9 µM
Cc1ccc(/C=C(\C#N)C(=O)Nc2cccc(Cl)c2)o1 | > 16.9 µM
CCOC(=O)c1sc(NC(=O)c2cccc3ccccc23)nc1C | > 16.9 µM
CN(C)c1ccc(/C=C(/C#N)C(=O)Nc2ccc(O)cc2)cc1 | > 16.9 µM
O=[N+]([O-])c1ccc(N/N=C/c2ccccc2O)cc1 | 13 µM
O=C1c2cc(O)ccc2-c2ccc(O)cc21 | 8.87 µM
Cc1ccc(O)c(NC(=O)CN(C)S(=O)(=O)c2ccc(Cl)cc2)c1 | > 16.9 µM
COCCNC(=O)c1cc(-c2cccs2)on1 | > 16.9 µM
CCCCCCc1ccc(-c2ncc(N)cn2)cc1 | > 16.9 µM
CCCNC(=O)c1cc(-c2ccc(F)cc2)on1 | > 16.9 µM
Cc1ccc(O)c(NC(=O)c2cc(C(C)C)on2)c1 | > 16.9 µM
O=C(COC(=O)c1ccc(O)c(O)c1)Nc1nc(-c2ccccc2)cs1 | 16.8 µM
Oc1ccc(/C=N/Nc2cccc3cccnc23)c(O)c1 | 9.41 µM
COc1ccc(N(C(=O)c2ccccc2)S(=O)(=O)c2cc(OC)ccc2OC)cc1 | 5.82 µM
CC(=O)Oc1ccc(C(=O)OCc2ccc(Cl)cc2)cc1OC(C)=O | > 18.6 µM
COc1ccc(C2C=C3Oc4ccccc4N=C3NN2)cc1 (stereo not drawn) | > 16.9 µM

Taken from the supplement of paper PMC4954754.
